B1: GFOD1 (parent)
chain: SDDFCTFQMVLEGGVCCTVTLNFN

variants of: B1; experiment: protein stability index of a GFP-peptide fusion (GPS, HEK-293T) (PSI 1-6); higher = more stable; conditions: c terminus: a fixed tail appended;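 further: lentivirally expressed fusions sorted by FACS into six bins by GFP to DsRed ratio, PSI derived from sequencing read proportions per bin multiplied by bin number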
I'd appreciate it if you could supply protein stability index values for the items below.
Just the number, please.

## Task Consider the variant shown here: G14N What is its recorded protein stability index?
## Result 1.78

## Task Return reported protein stability index; argument: F23H
## Result 2.43

## Task // returns reported protein stability index for input N22E
## Result 1.62

## Task Which protein stability index is reported for this variant? N22I
## Result 3.6

## Task I have this variant here, D3K , and I need its recorded protein stability index.
## Result 3.76

## Task Which protein stability index is listed for N24F ?
## Result 3.55

## Task I am curious: what protein stability index value has been reported for F4C ?
## Result 3.57

## Task Using the record for L21I , report its protein stability index.
## Result 3

## Task Recorded protein stability index for D2C , please?
## Result 3.12

## Task Entry under review: L11P . Reported protein stability index?
## Result 3.4

## Task Would you mind telling me what protein stability index value was observed for N24L ?
## Result 3.23

## Task Param item = N22W ; retrieve measured protein stability index.
## Result 2.88

## Task Give the measured protein stability index of M9L .
## Result 2.7

## Task Need protein stability index, item F4I
## Result 3.55

## Task protein stability index lookup needed for F23S , thanks.
## Result 2.62

## Task What value of measured protein stability index is listed for C17Q ?
## Result 2.87

## Task Quick one: protein stability index for N22P ?
## Result 2.9

## Task Consider the variant V10C and give its measured protein stability index.
## Result 3.77

## Task For the variant shown here, D2A , give the reported protein stability index.
## Result 3.55

## Task I have this variant here, D3I , and I need its recorded protein stability index.
## Result 1.7

## Task What value of protein stability index has been recorded for this entry: Q8Y
## Result 1.44

## Task What value of measured protein stability index is listed for Q8C ?
## Result 2.98

The origin of these recorded values is the supplement of paper PMC10567573.
